Kindly supply the reported Percent Inhibition of ADE values for the records listed here.
- Tested on: atrial peptide-degrading enzyme (ADE)
- experiment-notes: Inhibition of ADE activity (AcAPI production from 50 μM AcAPII, HPLC)
- Assay type: biochemical, bovine
- test-conditions: inhibitor 1 mM; 50 μM AcAPII, 1 hour, 37° C.
- Description: The concentration of enzyme and AcAPII were chosen so that approximately 80% of the AcAPII was degraded in the absence of inhibitor. The production of AcAPI was determined by integration of the AcI peak, and percent inhibition by the inhibitors was calculated. (e.) Enzyme Inhibitor Testing: To further characterize ADE, the extent of inhibition by several known peptidase inhibitors was determined.
Answers are plain numbers, in %.

NC(=O)CI [Iodoacetamide]    10
O=C(O)c1cc[c]([Hg][Cl])cc1 [p-Chloromercuribenzoate]    95
O=S(=O)(F)Cc1ccccc1 [PMSF, Phenylmethylsulfonyl fluoride]    8

For every item below, please supply its Percent Inhibition of ADE.
1. c1cnc2c(c1)ccc1cccnc12
2. O=S(=O)(O)c1cc[c]([Hg][OH])cc1 [Hydroxymercuriphenyl sulfonic acid]

1. 72
2. 100

====

- Test system: atrial peptide-degrading enzyme (ADE)
- experiment-notes: Inhibition of ADE activity (AcAPI production from 50 μM AcAPII, HPLC)
- Type: biochemical, bovine
- test-conditions: Table 10; 0.1 mM
- Experimental: The concentration of enzyme and AcAPII were chosen so that approximately 80% of the AcAPII was degraded in the absence of inhibitor. The production of AcAPI was determined by integration of the AcI peak, and percent inhibition by the inhibitors was calculated. (e.) Enzyme Inhibitor Testing: To further characterize ADE, the extent of inhibition by several known peptidase inhibitors was determined.
Where a SMILES comes first, the peptide text is derived from it. [ ]: non-standard residue; d: D form.
Hi! Just check whether % Inhibition At 0.1 mM is below 30%. Below gives MET, equal or above gives NOT MET.

Take the compound CC(C)C[C@H](NC(=O)[C@@H](N)CO)C(=O)N[C@@H](CCCNC(=N)N)C(=O)N[C@@H](CCCNC(=N)N)C(=O)N[C@@H](CO)C(=O)N[C@@H](CO)C(=O)N[C@H](C)C(=O)NCC(=O)N[C@H](C)C(=O)N[C@@H](CC(N)=O)C(=O)N[C@@H](CO)C(=O)N[C@H](Cc1ccccc1)C(=O)N[C@@H](CCCNC(=N)N)C(=O)N[C@@H](Cc1ccc(O)cc1)C(N)=O [(II)] (H-SLRRSS[dA]G[dA]NS[dF]RY-NH2) and say whether its % Inhibition At 0.1 mM is less than 30%.
MET

Take the compound CC(C)C[C@H](NC(=O)[C@@H](N)CO)C(=O)N[C@@H](CCCNC(=N)N)C(=O)N[C@@H](CCCNC(=N)N)C(=O)N[C@@H](CO)C(=O)N[C@@H](CO)C(=O)N[C@H](C)C(=O)NCC(=O)N[C@H](C)C(=O)N[C@@H](CC(N)=O)C(=O)N[C@H](CO)C(=O)N[C@@H](Cc1ccccc1)C(=O)N[C@@H](CCCNC(=N)N)C(=O)N[C@@H](Cc1ccc(O)cc1)C(N)=O [(III)] (H-SLRRSS[dA]G[dA]N[dS]FRY-NH2) and say whether its % Inhibition At 0.1 mM is less than 30%.
MET

Take the compound CC(C)C[C@H](NC(=O)[C@@H](N)CO)C(=O)N[C@@H](CCCNC(=N)N)C(=O)N[C@@H](CCCNC(=N)N)C(=O)N[C@@H](CO)C(=O)N[C@@H](CO)C(=O)N[C@H](C)C(=O)NCC(=O)N[C@H](C)C(=O)N[C@@H](CC(N)=O)C(=O)N[C@@H](CS)C(=O)N[C@H](Cc1ccccc1)C(=O)N[C@@H](CCCNC(=N)N)C(=O)N[C@@H](Cc1ccc(O)cc1)C(N)=O [(V)] (H-SLRRSS[dA]G[dA]NC[dF]RY-NH2) and say whether its % Inhibition At 0.1 mM is less than 30%.
NOT MET

Take the compound CC(C)C[C@H](NC(=O)[C@@H](N)CO)C(=O)N[C@@H](CCCNC(=N)N)C(=O)N[C@@H](CCCNC(=N)N)C(=O)N[C@@H](CO)C(=O)N[C@@H](CO)C(=O)N[C@H](C)C(=O)NCC(=O)N[C@H](C)C(=O)N[C@@H](CC(N)=O)C(=O)N[C@@H](CS)C(=O)N[C@H](Cc1ccccc1)C(=O)N[C@@H](CCCNC(=N)N)C(N)=O [(VI)] (H-SLRRSS[dA]G[dA]NC[dF]R-NH2) and say whether its % Inhibition At 0.1 mM is less than 30%.
NOT MET

Take the compound CC(C)C[C@H](NC(=O)[C@@H](N)CO)C(=O)N[C@@H](CCCNC(=N)N)C(=O)N[C@@H](CCCNC(=N)N)C(=O)N[C@@H](CO)C(=O)N[C@@H](CO)C(=O)N[C@H](C)C(=O)NCC(=O)N[C@H](C)C(=O)N[C@@H](CC(N)=O)C(=O)N[C@@H](CS)C(=O)N[C@@H](Cc1ccccc1)C(=O)N[C@@H](CCCNC(=N)N)C(=O)N[C@@H](Cc1ccc(O)cc1)C(N)=O [(IV)] (H-SLRRSS[dA]G[dA]NCFRY-NH2) and say whether its % Inhibition At 0.1 mM is less than 30%.
NOT MET

Take the compound CC(C)C[C@H](NC(=O)[C@@H](N)CO)C(=O)N[C@@H](CCCNC(=N)N)C(=O)N[C@@H](CCCNC(=N)N)C(=O)N[C@@H](CO)C(=O)N[C@@H](CO)C(=O)N[C@H](C)C(=O)NCC(=O)N[C@H](C)C(=O)N[C@@H](CC(N)=O)C(=O)N[C@@H](CO)C(=O)N[C@@H](Cc1ccccc1)C(=O)N[C@@H](CCCNC(=N)N)C(=O)N[C@@H](Cc1ccc(O)cc1)C(N)=O [(I)] (H-SLRRSS[dA]G[dA]NSFRY-NH2) and say whether its % Inhibition At 0.1 mM is less than 30%.
NOT MET
